assay_target: photolabile unchained HLA-A*11:01 pMHC-I protein (Homo sapiens, UniProt P04439, A114D/D185E/E176A/F33Y/L180Q/S129P/T187R)
test_method_notes: ELISA with photolabile unchained pMHC-I protein and UV irradiation
Format: binding
Recorded EASY_mean, one value per entry.
Note: the reply should be a number with no unit written.

Examples from the recorded data:
chain: KITDFGRAKLL [LR1032]
EASY_mean: 0.009234
--
chain: KTSPKANKEILD [EX1029]
EASY_mean: -0.02661
--
chain: DFGRAKLLGAEE [LR1047]
EASY_mean: -0.01199

Now take the following sequence into account.
Query SLLDYVREHKD [CS1038] yields EASY_mean of -0.01097

====

assay_target: photolabile unchained HLA-A*11:01 pMHC-I protein (Homo sapiens, UniProt P04439, A114D/D185E/E176A/F33Y/L180Q/S129P/T187R)
test_method_notes: ELISA with photolabile unchained pMHC-I protein and UV irradiation
Type: binding
measurement_kind: EASY_mean
Note: the reply should be a number with no unit written.

Examples from the recorded data:
chain: AIKTSPKANKEI [EX1027]
EASY_mean: -0.02114

chain: MQLMPFGCLLDY [TM1050]
EASY_mean: 0.2124

Query PFGSLLDYVRE [CS1035] yields EASY_mean of -0.00332

====

Recorded EZ_mean, one value per entry.
Tested on: HLA-A*11:01 single chain protein
Assay type: biochemical, Human
Note: the reply should be a number with no unit written.

chain: FGSLLDYVRE [CS1025]
EZ_mean: -0.05956
//
chain: MPLGSLLDYVR [CS1034]
EZ_mean: -0.06141
//
chain: FGSLLDYVR [CS1015]
EZ_mean: -0.05849

Now take the following sequence into account.
Given the sequence LMPFGSLLD [CS1012, probably meant CS1032] and test system HLA-A*11:01 single chain protein, the measured EZ_mean is -0.06046

====

assay_target: photolabile unchained HLA-A*11:01 pMHC-I protein (Homo sapiens, UniProt P04439, A114D/D185E/E176A/F33Y/L180Q/S129P/T187R)
test_method_notes: ELISA with photolabile unchained pMHC-I protein and UV irradiation
Format: binding
condition: […]; mean, STDEV
measurement_kind: EASY_mean
Note: the reply should be a number with no unit written.

chain: QLIMQLMPF [TM1014]
EASY_mean: -0.03038

chain: STVQLIMQ [TM1002]
EASY_mean: -0.02917

Query TSTVQLIMQL [TM1020] yields EASY_mean of -0.02933

====

assay_target: photolabile unchained HLA-A*11:01 pMHC-I protein (Homo sapiens, UniProt P04439, A114D/D185E/E176A/F33Y/L180Q/S129P/T187R)
test_method_notes: ELISA with photolabile unchained pMHC-I protein and UV irradiation
Assay type: binding
condition: ELISA signal, mean; […]
# EASY_mean binned as low range: < -0.03; mid range: ≥ -0.03 and < -0.02; high range: ≥ -0.02

chain: IMQLMPFGCL [TM1026]
answer_label: mid range

chain: TVQLIMQLMP [TM1022]
answer_label: high range

chain: DFGRAKLLG [LR1014]
answer_label: mid range

(Q) Category lookup for the sequence VAIKTSPKAN [EX1011]
(A) high range

(Q) Category lookup for the sequence QLIMQLMPFG [TM1024]
(A) high range

(Q) Category lookup for the sequence LIMQLMPFGC [TM1025]
(A) mid range

(Q) Category lookup for the sequence DFGRAKLLGA [LR1024]
(A) mid range

(Q) Category lookup for the sequence QLIMQLMP [TM1005]
(A) low range

(Q) Category lookup for the sequence VQLIMQLMPFG [TM1034]
(A) low range

(Q) Category lookup for the sequence LIMQLMPFGCL [TM1036]
(A) low range

(Q) Category lookup for the sequence TSPKANKEILD [EX1022]
(A) high range
